- test_protocol: Pharmacokinetics in blood and vital organs
- Assay type: in vivo, Wistar rats
- condition_parameters: male, Wistar, rat, liver, po
measure: Cmax (ng/mL)
Write down the numeric answer in ng/mL and omit the unit.

input: Quick check: Cmax of C/C=C1\[C@H]2C=C(C)C[C@]1(N)c1ccc(=O)[nH]c1C2 [HupA Solution, huperzine A] ?
output: 256

----------
- test_protocol: Pharmacokinetics in blood and vital organs
- Assay type: in vivo, Wistar rats
- condition_parameters: male, Wistar, rat, lung, po
measure: Tmax (h)
Response body: numeric value in h, unit text excluded.

input: Which Tmax is reported for this compound? C/C=C1\[C@H]2C=C(C)C[C@]1(N)c1ccc(=O)[nH]c1C2
output: 1
